Data credit: PubChem BioAssay

Experiment: drug combination growth inhibition, ovarian cancer – cell-based, oncology-focused library, rucaparib conditional, profiling panel (AID 1508598)
Conditions: patient-derived ovarian cancer cells, CellTiter-Glo viability, 144 h; at 0.0195 µM; OCI-P5x cells; without rucaparib; hits give low values
Property: viability; scope: individual compounds
measuredAttribute: viability (%)

COc1cc2c(Oc3ccc4[nH]c(C)cc4c3F)ncnc2cc1OCCCN1CCCC1    93.1
CN1CCN(CCOc2cc(OC3CCOCC3)c3c(Nc4c(Cl)ccc5c4OCO5)ncnc3c2)CC1    89
COc1ncc(-c2ccc3nccc(-c4ccnnc4)c3c2)cc1NS(=O)(=O)c1ccc(F)cc1F    27
CCCCc1nc2cc(/C=C/C(=O)NO)ccc2n1CCN(CC)CC    104
Cc1ccc2nc(NC(=O)CSc3nc4c(c(=O)n3-c3ccccc3)SCC4)sc2c1    99.2
O=C(O)[C@H](Cc1c[nH]c2ccccc12)N1C(=O)c2ccccc2C1=O    97.2
Cn1cc(-c2ccc3c(c2)CCN3C(=O)Cc2cccc(C(F)(F)F)c2)c2c(N)ncnc21    107
COc1ccc(-n2c(SCCCN3C(=O)c4cccc5cccc(c45)C3=O)nnc2-c2ccncc2)cc1    101
CS(=O)(=O)c1ccc(C(=O)Nc2ccc(Cl)c(-c3ccccn3)c2)c(Cl)c1    102
Cc1ccc(-c2csc(NC(=O)c3ccccc3)n2)c(C)c1    98.4
